Numbers sourced from the RNAGym collection of RNA variant scans (doi:10.7554/elife.80360).

Give self-cleavage for every item shown.
B1: Hairpin Ribozyme (parent)
chain: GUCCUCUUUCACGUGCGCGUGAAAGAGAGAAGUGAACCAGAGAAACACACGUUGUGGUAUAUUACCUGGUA

# Variants of: B1
# Assay: self-cleavage, relative activity (ratio to wild type); higher = more cleavage; co-transcriptional
Give bare numbers.

Here's what some known entries look like.
1) G15U C16A; 1.11
2) U8C C12U; 0.566
3) A24U G34U; 1.22
4) G21U A24C; 0.481
5) C16G C65G; 0.163

Go through the list and state self-cleavage for each entry.
1. C18G A23G
2. G32U U63G
3. U7G G56U
4. C37G C65A
5. A22U A64G
6. A11U A59U
7. U9A A30G
8. C4G G51U

OUTPUT:
0.84
0.113
0.0768
0.179
0.474
0.256
0.148
0.223

Could I get self-cleavage for every one of these entries?
1. U8A G40A
2. G51C U63C
3. C4A U67A
4. U5G
5. U7G A61G
6. G15C U20A
7. A59U C66G
8. A24G U52C

OUTPUT:
[0.235, 0.1, 0.155, 0.324, 0.0998, 0.963, 0.185, 0.762]

Give self-cleavage for each of the items listed below.
1. G19A G69U
2. G13U U33A
3. U53G G54A

OUTPUT:
1: 0.213; 2: 0.105; 3: 0.569
